Here the recorded pIC50 is given for each entry.
target: MDM2 (Homo sapiens, UniProt Q00987); assay: Competitive fluorescence polarization assay for MDM2; type: binding; settings: competitive FP assay, MDM2; read-out: IC50 (MDM2)
Sequence (Q00987 1-125): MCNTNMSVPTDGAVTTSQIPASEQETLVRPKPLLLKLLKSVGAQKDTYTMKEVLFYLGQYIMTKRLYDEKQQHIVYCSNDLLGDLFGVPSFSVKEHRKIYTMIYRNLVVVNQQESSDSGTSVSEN
pIC50: −log10 of the molar value. Where a SMILES comes first, the peptide text is derived from it. Bridges are numbered along the chain shown (N, C = ends). [ ]: non-standard residue; d: D form. R8 = C=CCCCCCC[C@@](C)(N)C(=O)O; Cba = N[C@@H](CC1CCC1)C(=O)O; Chg = N[C@H](C(=O)O)C1CCCCC1; hLeu = CC(C)CC[C@H](N)C(=O)O; S5 = C=CCCC[C@](C)(N)C(=O)O; Nle = CCCC[C@H](N)C(=O)O; Ac3c = NC1(C(=O)O)CC1

Inquiry: What value of pIC50 has been recorded for this entry: CC(=O)N[C@@H](CC(C)C)C(=O)N[C@H](C(=O)N[C@@H](Cc1ccccc1)C(=O)N[C@]1(C)CCCCCCC=CCCC[C@@](C)(C(=O)N[C@@H](CO)C(=O)N[C@@H](C)C(=O)N[C@@H](Cc2ccccc2)C(N)=O)NC(=O)[C@H](CC2CCC2)NC(=O)[C@H](CCC(N)=O)NC(=O)[C@H](C)NC(=O)[C@H](Cc2c[nH]c3ccccc23)NC(=O)[C@H](Cc2ccc(O)cc2)NC(=O)[C@H](CCC(=O)O)NC1=O)[C@@H](C)O [compound 256] (Ac-LTF[R8]EYWAQ[Cba][S5]SAF-NH2; staple 4-11)
Reply text: 7.00 to 8.00

Inquiry: Also CC(=O)N[C@@H](CCC(=O)O)C(=O)N[C@H](C(=O)N[C@@H](Cc1ccccc1)C(=O)N[C@]1(C)CCCCCCC=CCCC[C@@](C)(C(=O)N[C@@H](CO)C(=O)N[C@H](C(=O)N[C@@H](CO)C(N)=O)C(C)C)NC(=O)[C@H](CC(C)C)NC(=O)[C@H](CCC(N)=O)NC(=O)[C@H](C)NC(=O)[C@H](Cc2c[nH]c3ccccc23)NC(=O)[C@H](Cc2ccc(O)cc2)NC(=O)[C@H](C(C)C)NC1=O)[C@@H](C)O [compound 130] (Ac-ETF[R8]VYWAQL[S5]SVS-NH2; staple 4-11) ?
Reply text: > 8.00

Inquiry: Request: CC(=O)N[C@@H](Cc1ccccc1)C(=O)N[C@]1(C)CCCCCCC=CCCC[C@@](C)(C(=O)N[C@@H](CCC(N)=O)C(=O)N[C@@H](Cc2c[nH]cn2)C(=O)N[C@H](C(=O)N[C@H](CC(C)C)C(N)=O)C2CCCCC2)NC(=O)[C@H](CC(C)C)NC(=O)[C@H](CCC(N)=O)NC(=O)[C@H](C(C)C)NC(=O)[C@H](Cc2c[nH]c3ccccc23)NC(=O)[C@H](Cc2ccc(O)cc2)NC(=O)[C@H](C)NC1=O [compound 40] (Ac-F[R8]AYWVQL[S5]QH[Chg][dL]-NH2; staple 2-9)
Reply text: 6.00 to 7.00

Inquiry: Field entry: CC(=O)N[C@@H](CC(C)C)C(=O)N[C@H](C(=O)N[C@@H](Cc1ccccc1)C(=O)N[C@]1(C)CCCCCCC=CCCC[C@@](C)(C(=O)N[C@@H](CO)C(=O)N[C@@H](C)C(=O)N[C@@H](Cc2ccccc2)C(N)=O)NC(=O)[C@H](CC2CCC2)NC(=O)[C@H](CCC(N)=O)NC(=O)[C@H](Cc2c[nH]c3ccccc23)NC(=O)[C@H](Cc2c[nH]c3ccccc23)NC(=O)[C@H](Cc2ccc(O)cc2)NC(=O)[C@H](C)NC1=O)[C@@H](C)O [compound 263] (Ac-LTF[R8]AYWWQ[Cba][S5]SAF-NH2; staple 4-11)
Reply text: 7.00 to 8.00

Inquiry: What about this compound? CC(=O)N[C@@H](CC(C)C)C(=O)N[C@H](C(=O)N[C@@H](Cc1ccccc1)C(=O)N[C@]1(C)CCCCCC/C=C\CCC[C@@](C)(C(=O)N[C@@H](CO)C(=O)N[C@@H](C)C(=O)N[C@@H](C)C(N)=O)NC(=O)[C@H](CCC(C)C)NC(=O)[C@H](CCC(N)=O)NC(=O)[C@H](C)NC(=O)[C@H](Cc2c[nH]c3ccccc23)NC(=O)[C@H](Cc2ccc(O)cc2)NC(=O)[C@H](C)NC1=O)[C@@H](C)O [compound 114] (Ac-LTF[R8]AYWAQ[hLeu][S5]SAA-NH2; staple (Z) 4-11)
Reply text: 7.00 to 8.00

Inquiry: Here is the next compound: CC[C@H](C)[C@H](NC(=O)[C@H](C)NC(=O)[C@H](C)NC(=O)[C@]1(C)CCCC=CCCCCCC[C@@](C)(NC(=O)[C@H](Cc2ccccc2)NC(C)=O)C(=O)N[C@@H](C)C(=O)N[C@@H](Cc2ccc(O)cc2)C(=O)N[C@@H](Cc2c[nH]c3ccccc23)C(=O)N[C@@H](CCC(=O)O)C(=O)NC2(CC2)C(=O)N[C@@H](CC(C)C)C(=O)N1)C(N)=O [compound 19] (Ac-F[R8]AYWE[Ac3c]L[S5]AAI-NH2; staple 2-9)
Reply text: 6.00 to 7.00

Inquiry: Check CCCC[C@H](NC(=O)[C@H](C)NC(=O)[C@H](C)NC(=O)[C@]1(C)CCCC=CCCCCCC[C@@](C)(NC(=O)[C@H](Cc2ccccc2)NC(=O)[C@H](C)NC(=O)[C@H](C)NC(=O)[C@H](C)NC(=O)[C@H](C)NC(C)=O)C(=O)N[C@@H](CCC(=O)O)C(=O)N[C@@H](Cc2ccc(O)cc2)C(=O)N[C@@H](Cc2c[nH]c3ccccc23)C(=O)N[C@@H](C)C(=O)N[C@@H](CCC(N)=O)C(=O)N[C@@H](CC(C)C)C(=O)N1)C(=O)N[C@@H](C)C(N)=O [compound 373] (Ac-AAAAF[R8]EYWAQL[S5]AA[Nle]A-NH2; staple 6-13) too.
Reply text: 7.00 to 8.00

Inquiry: CC(=O)N[C@@H](CC(C)C)C(=O)N[C@H](C(=O)N[C@@H](Cc1ccccc1)C(=O)N[C@]1(C)CCCCCCC=CCCC[C@@](C)(C(=O)N[C@@H](CCCNC(=N)N)C(=O)N[C@@H](C)C(=O)N[C@@H](C)C(N)=O)NC(=O)[C@H](CC2CCC2)NC(=O)[C@H](CCC(N)=O)NC(=O)[C@H](C)NC(=O)[C@H](Cc2c[nH]c3ccccc23)NC(=O)[C@H](Cc2ccc(O)cc2)NC(=O)[C@H](CCC(=O)O)NC1=O)[C@@H](C)O [compound 364] (Ac-LTF[R8]EYWAQ[Cba][S5]RAA-NH2; staple 4-11) ?
Reply text: 7.00 to 8.00

---

// pKi lookup, one value per entry
molecular target: MDMX (Homo sapiens, UniProt O15151); experiment: Competitive fluorescence polarization assay for MDMX; format: binding; details: competitive FP assay, read-out: Ki (MDMX)
Sequence (O15151 1-125): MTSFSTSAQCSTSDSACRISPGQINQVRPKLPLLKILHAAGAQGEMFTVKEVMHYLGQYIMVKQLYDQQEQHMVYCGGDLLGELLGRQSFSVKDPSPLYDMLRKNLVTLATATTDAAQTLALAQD
pKi: −log10 of the molar value. Where a SMILES comes first, the peptide text is derived from it. Bridges are numbered along the chain shown (N, C = ends). [ ]: non-standard residue; d: D form. Trp(6-Cl) = N[C@@H](Cc1c[nH]c2cc(Cl)ccc12)C(=O)O; Phe(4-COOH) = N[C@@H](Cc1ccc(C(=O)O)cc1)C(=O)O; R8 = C=CCCCCCC[C@@](C)(N)C(=O)O; Cba = N[C@@H](CC1CCC1)C(=O)O; S5 = C=CCCC[C@](C)(N)C(=O)O; Nle = CCCC[C@H](N)C(=O)O

# example entries with known answers
• CCCCCC(=O)N[C@@H](CC(C)C)C(=O)N[C@H](C(=O)N[C@@H](Cc1ccccc1)C(=O)N[C@]1(C)CCCCCCC=CCCC[C@@](C)(C(=O)N[C@@H](CO)C(=O)N[C@@H](C)C(=O)N[C@@H](C)C(N)=O)NC(=O)[C@H](CCC(C)C)NC(=O)[C@H](CCC(N)=O)NC(=O)[C@H](C)NC(=O)[C@H](Cc2c[nH]c3ccccc23)NC(=O)[C@H](Cc2ccc(O)cc2)NC(=O)[C@H](CCC(=O)O)NC1=O)[C@@H](C)O = 7.00 to 8.00
• CCCC[C@H](NC(=O)[C@H](C)NC(=O)[C@H](C)NC(=O)[C@]1(C)CCCC=CCCCCCC[C@@](C)(NC(=O)[C@H](Cc2ccccc2)NC(=O)[C@@H](NC(=O)[C@H](CC(C)C)NC(C)=O)[C@@H](C)O)C(=O)N[C@@H](C)C(=O)N[C@@H](Cc2ccc(O)cc2)C(=O)N[C@@H](Cc2c[nH]c3ccccc23)C(=O)N[C@@H](C)C(=O)N[C@@H](CCC(N)=O)C(=O)N[C@@H](CC(C)C)C(=O)N1)C(=O)N[C@H](CC(C)C)C(N)=O (single isomer, unassigned) = 7.00 to 8.00
• CC(=O)N[C@@H](CC(C)C)C(=O)N[C@H](C(=O)N[C@@H](Cc1ccccc1)C(=O)N[C@]1(C)CCCCCCC=CCCC[C@@](C)(C(=O)N[C@@H](CO)C(=O)N[C@@H](C)C(=O)N[C@@H](Cc2ccccc2)C(N)=O)NC(=O)[C@H](CC2CCC2)NC(=O)[C@H](CCC(N)=O)NC(=O)[C@H](C)NC(=O)[C@H](Cc2c[nH]c3cc(Cl)ccc23)NC(=O)[C@H](Cc2ccc(O)cc2)NC(=O)[C@H](CCC(=O)O)NC1=O)[C@@H](C)O [compound 261] (Ac-LTF[R8]EY[Trp(6-Cl)]AQ[Cba][S5]SAF-NH2; staple 4-11) = 7.00 to 8.00

In the following, a different compound is considered.
Inquiry: Could you share which pKi value was measured for CCCC[C@H](NC(=O)[C@H](C)NC(=O)[C@H](CO)NC(=O)[C@]1(C)CCCC=CCCCCCC[C@@](C)(NC(=O)[C@H](Cc2ccccc2)NC(=O)[C@@H](NC(=O)[C@H](CC(C)C)NC(C)=O)[C@@H](C)O)C(=O)N[C@@H](CCC(=O)O)C(=O)N[C@@H](Cc2ccc(C(=O)O)cc2)C(=O)N[C@@H](Cc2c[nH]c3ccccc23)C(=O)N[C@@H](C)C(=O)N[C@@H](CCC(N)=O)C(=O)N[C@@H](CC2CCC2)C(=O)N1)C(=O)N[C@@H](C)C(N)=O [compound 244] (Ac-LTF[R8]E[Phe(4-COOH)]WAQ[Cba][S5]SA[Nle]A-NH2; staple 4-11) ?
Reply text: > 8.00

All figures here come from patent US8927500B2.
